Measured Bliss excess values are reported for all entries that follow.
Test system: JJN-3 (Plasma Cell Myeloma);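 further: after 72 h of two-drug dosing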
ASSAY_PROCEDURE: Bliss excess, mean over the matrix (fraction); higher = more synergy
Form rule: numeric answer, no unit written next to it.

# example entries with known answers
[[record]]
molecule = "Cc1c2c(nn1C)CSCc1cc(n(C)n1)CSc1cc(c3ccccc3c1)OCCCc1c(C(=O)O)n(C)c3c-2c(Cl)ccc13 [AZD5991] + C1CN(CCC1(C(=O)N[C@@H](CCO)C2=CC=C(C=C2)Cl)N)C3=NC=NC4=C3C=CN4 [Capivasertib] (first compound max 1 µM, 7x7, partner max 3 µM)"
measurement_type = "Bliss excess"
reported_measurement = -0.041

[[record]]
molecule = "COc1nnc2ccc(N3CCC(c4ccc(OCCN5CCN(C)C(=O)[C@H]5C)cc4)CC3)nn12 [AZD5153] + C[C@@H]1COCCN1C2=NC(=NC(=C2)C3(CC3)[S@](=N)(=O)C)C4=C5C=CNC5=NC=C4 [AZD6738] (first compound max 1 µM, 7x7, partner max 10 µM)"
measurement_type = "Bliss excess"
reported_measurement = -0.0394


Ask: Quick check: Bliss excess of COc1nnc2ccc(N3CCC(c4ccc(OCCN5CCN(C)C(=O)[C@H]5C)cc4)CC3)nn12 [AZD5153] + CN(CC[C@H](CSC1=CC=CC=C1)NC2=C(C=C(C=C2)S(=O)(=O)NC(=O)C3=CC=C(C=C3)N4CCC(CC4)[C@H](C5=CC=CC=C5C6=CC=C(C=C6)Cl)O)S(=O)(=O)C(F)(F)F)CCO [AZD4320] (first compound max 1 µM, 7x7, partner max 1 µM) ?
Result: -0.0443

Ask: Try this molecule next: CC1(C)CCC(CN2CCN(c3ccc(C(=O)NS(=O)(=O)c4ccc(NCC5CCOCC5)c([N+](=O)[O-])c4)c(Oc4cnc5[nH]ccc5c4)c3)CC2)=C(c2ccc(Cl)cc2)C1 [Venetoclax] + C[C@@H](Nc1cc(F)cc(F)c1)c1cc(C(=O)N(C)C)cc2c(=O)cc(N3CCOCC3)oc12 [AZD8186] (first compound max 1 µM, 7x7, partner max 3 µM)
Result: -0.0092

Ask: Query C[C@@H](c1ccc2nccn2c1)n1nnc2ncc(-c3cnn(C)c3)nc21 [Savolitinib] + CC1(C)CCC(CN2CCN(c3ccc(C(=O)NS(=O)(=O)c4ccc(NCC5CCOCC5)c([N+](=O)[O-])c4)c(Oc4cnc5[nH]ccc5c4)c3)CC2)=C(c2ccc(Cl)cc2)C1 [Venetoclax] (first compound max 1 µM, 7x7, partner max 1 µM) next
Result: -0.012

Ask: // query: C[C@@H](c1ccc2nccn2c1)n1nnc2ncc(-c3cnn(C)c3)nc21 [Savolitinib] + CN(CC[C@H](CSC1=CC=CC=C1)NC2=C(C=C(C=C2)S(=O)(=O)NC(=O)C3=CC=C(C=C3)N4CCC(CC4)[C@H](C5=CC=CC=C5C6=CC=C(C=C6)Cl)O)S(=O)(=O)C(F)(F)F)CCO [AZD4320] (first compound max 1 µM, 7x7, partner max 1 µM)
Result: -0.0374

Ask: Field entry: Cc1cc2ncnn2cc1Nc1ncc2c(n1)n(C1CCOCC1)c(=O)n2C [AZD7648] + C=CCn1c(=O)c2cnc(Nc3ccc(N4CCN(C)CC4)cc3)nc2n1-c1cccc(C(C)(C)O)n1 [AZD1775] (first compound max 10 µM, partner max 1 µM)
Result: -0.0726

Ask: Follow-up entry: NC1(C(=O)N[C@@H](CCO)c2ccc(Cl)cc2)CCN(c2ncnc3[nH]ccc23)CC1 [Capivasertib] + Cn1cnc2c(F)c(Nc3ccc(Br)cc3Cl)c(C(=O)NOCCO)cc21 [Selumetinib] (first compound max 10 µM, 7x7, partner max 10 µM)
Result: 0.0565

Ask: Now this one: NC1(C(=O)N[C@@H](CCO)c2ccc(Cl)cc2)CCN(c2ncnc3[nH]ccc23)CC1 [Capivasertib] + C[C@@H]1COCCN1C2=NC(=NC(=C2)C3(CC3)[S@](=N)(=O)C)C4=C5C=CNC5=NC=C4 [AZD6738] (first compound max 10 µM, 7x7, partner max 10 µM)
Result: -0.0181

Ask: Field entry: Cn1cnc2c(F)c(Nc3ccc(Br)cc3Cl)c(C(=O)NOCCO)cc21 [Selumetinib] + C=CCn1c(=O)c2cnc(Nc3ccc(N4CCN(C)CC4)cc3)nc2n1-c1cccc(C(C)(C)O)n1 [AZD1775] (first compound max 10 µM, partner max 1 µM)
Result: -0.0188

Ask: Now consider Cc1c2c(nn1C)CSCc1cc(n(C)n1)CSc1cc(c3ccccc3c1)OCCCc1c(C(=O)O)n(C)c3c-2c(Cl)ccc13 [AZD5991] + CCN(CCO)CCCOc1ccc2c(Nc3cc(CC(=O)Nc4cccc(F)c4)[nH]n3)ncnc2c1 [AZD2811] (first compound max 1 µM, 7x7, partner max 1 µM) .
Result: 0.0225

Ask: Now consider C[C@@H](c1ccc2nccn2c1)n1nnc2ncc(-c3cnn(C)c3)nc21 [Savolitinib] + Cc1c2c(nn1C)CSCc1cc(n(C)n1)CSc1cc(c3ccccc3c1)OCCCc1c(C(=O)O)n(C)c3c-2c(Cl)ccc13 [AZD5991] (first compound max 1 µM, 7x7, partner max 1 µM) .
Result: -0.0384

Ask: Now consider Cn1cnc2c(F)c(Nc3ccc(Br)cc3Cl)c(C(=O)NOCCO)cc21 [Selumetinib] + C[C@@H]1COCCN1C2=NC(=NC(=C2)C3(CC3)[S@](=N)(=O)C)C4=C5C=CNC5=NC=C4 [AZD6738] (first compound max 10 µM, 7x7, partner max 10 µM) .
Result: 0.0533

----------
Listed below: combination Emax values for each entry.
Test system: MRK-nu-1 (Breast Carcinoma)
ASSAY_PROCEDURE: combination Emax (second highest fraction inhibited in the dose matrix, 72 h); higher = more inhibition; extreme values may be limits of the assay
The response must contain the number and no unit.

Ask: Using the record for Cc1c2c(nn1C)CSCc1cc(n(C)n1)CSc1cc(c3ccccc3c1)OCCCc1c(C(=O)O)n(C)c3c-2c(Cl)ccc13 [AZD5991] + C1CN(CCC1(C(=O)N[C@@H](CCO)C2=CC=C(C=C2)Cl)N)C3=NC=NC4=C3C=CN4 [Capivasertib] (first compound max 1 µM, 7x7, partner max 3 µM) , report its combination Emax.
Result: 1

Ask: How about N#Cc1cnc(Nc2cc(NC[C@H]3CNCCO3)c(C(F)(F)F)cn2)cn1 [SRA737] + Nc1ccn([C@@H]2O[C@H](CO)[C@@H](O)C2(F)F)c(=O)n1 [Gemcitabine] (first compound max 10 µM, 7x7, partner max 0.3 µM) ?
Result: 0.748

Ask: Now give it for Cn1cnc2c(F)c(Nc3ccc(Br)cc3Cl)c(C(=O)NOCCO)cc21 [Selumetinib] + CCN(CCO)CCCOc1ccc2c(Nc3cc(CC(=O)Nc4cccc(F)c4)[nH]n3)ncnc2c1 [AZD2811] (first compound max 10 µM, 7x7, partner max 1 µM) too.
Result: 0.548

Ask: One more compound: C[C@@H](Nc1cc(F)cc(F)c1)c1cc(C(=O)N(C)C)cc2c(=O)cc(N3CCOCC3)oc12 [AZD8186] + CC(=O)c1c(C)c2cnc(Nc3ccc(N4CCNCC4)cn3)nc2n(C2CCCC2)c1=O [Palbociclib] (first compound max 10 µM, 7x7, partner max 10 µM)
Result: 0.36

Ask: Proceed to C[C@@H](Oc1cc(-c2cnn(C3CCNCC3)c2)cnc1N)c1c(Cl)ccc(F)c1Cl [Crizotinib] + Cn1cnc2c(F)c(Nc3ccc(Br)cc3Cl)c(C(=O)NOCCO)cc21 [Selumetinib] (first compound max 10 µM, 7x7, partner max 10 µM)
Result: 0.224

Ask: Then NC1(C(=O)N[C@@H](CCO)c2ccc(Cl)cc2)CCN(c2ncnc3[nH]ccc23)CC1 [Capivasertib] + CC(=O)c1c(C)c2cnc(Nc3ccc(N4CCNCC4)cn3)nc2n(C2CCCC2)c1=O [Palbociclib] (first compound max 10 µM, 7x7, partner max 10 µM) ?
Result: 0.382

Ask: Check C=CCn1c(=O)c2cnc(Nc3ccc(N4CCN(C)CC4)cc3)nc2n1-c1cccc(C(C)(C)O)n1 [AZD1775] + C[C@@H]1COCCN1C2=NC(=NC(=C2)C3(CC3)[S@](=N)(=O)C)C4=C5C=CNC5=NC=C4 [AZD6738] (first compound max 1 µM, partner max 10 µM) too.
Result: 0.802

----------
Test system: TK (B-Cell Non-Hodgkin's Lymphoma)
ASSAY_PROCEDURE: combination Emax (second highest fraction inhibited in the dose matrix, 72 h); higher = more inhibition; extreme values may be limits of the assay
This section presents compounds with their documented combination Emax values.

Before answering, review these 3 worked examples.
[[record]]
compound = "NC1(C(=O)N[C@@H](CCO)c2ccc(Cl)cc2)CCN(c2ncnc3[nH]ccc23)CC1 [Capivasertib] + COc1nnc2ccc(N3CCC(c4ccc(OCCN5CCN(C)C(=O)[C@H]5C)cc4)CC3)nn12 [AZD5153] (first compound max 10 µM, 7x7, partner max 1 µM)"
reported_measurement = 0.387

[[record]]
compound = "CC1(C)CCC(CN2CCN(c3ccc(C(=O)NS(=O)(=O)c4ccc(NCC5CCOCC5)c([N+](=O)[O-])c4)c(Oc4cnc5[nH]ccc5c4)c3)CC2)=C(c2ccc(Cl)cc2)C1 [Venetoclax] + C=CCn1c(=O)c2cnc(Nc3ccc(N4CCN(C)CC4)cc3)nc2n1-c1cccc(C(C)(C)O)n1 [AZD1775] (first compound max 1 µM, partner max 1 µM)"
reported_measurement = 1

[[record]]
compound = "CS(=O)(=O)CCNCc1ccc(-c2ccc3ncnc(Nc4ccc(OCc5cccc(F)c5)c(Cl)c4)c3c2)o1 [Lapatinib] + C[C@@H](Oc1cc(-c2cnn(C3CCNCC3)c2)cnc1N)c1c(Cl)ccc(F)c1Cl [Crizotinib] (first compound max 10 µM, 7x7, partner max 10 µM)"
reported_measurement = 0.701


Ask: Value lookup for combination Emax; key = Cc1c2c(nn1C)CSCc1cc(n(C)n1)CSc1cc(c3ccccc3c1)OCCCc1c(C(=O)O)n(C)c3c-2c(Cl)ccc13 [AZD5991] + Cn1cnc2c(F)c(Nc3ccc(Br)cc3Cl)c(C(=O)NOCCO)cc21 [Selumetinib] (first compound max 1 µM, 7x7, partner max 3 µM)
Result: 0.114

Ask: Now this one: CN(CCO)CC[C@H](CSc1ccccc1)Nc1ccc(S(=O)(=O)NC(=O)c2ccc(N3CCC([C@@H](O)c4ccccc4-c4ccc(Cl)cc4)CC3)cc2)cc1S(=O)(=O)C(F)(F)F [AZD4320] + Cn1cnc2c(F)c(Nc3ccc(Br)cc3Cl)c(C(=O)NOCCO)cc21 [Selumetinib] (first compound max 1 µM, 7x7, partner max 3 µM)
Result: 0.987

Ask: Quick one: Cc1nc(Nc2ncc(C(=O)Nc3c(C)cccc3Cl)s2)cc(N2CCN(CCO)CC2)n1 [Dasatinib] + CC(=O)Nc1cccc(-n2c(=O)n(C3CC3)c(=O)c3c(Nc4ccc(I)cc4F)n(C)c(=O)c(C)c32)c1 [Trametinib] (first compound max 2 µM, 7x7, partner max 1 µM)
Result: 0.145
